- Species on record: Rattus norvegicus
- METHOD SUMMARY: Compound was tested for hepatoprotective activity against D-GalN-induced cytotoxicity in primary cultured rat hepatocytes at 100 uM dose
- Type: functional
- CONDITION PARAMETERS: Hepatocyte
inhibition at 100 µM reference
EXPERIMENTAL READOUT: inhibition at 100 µM (%)

>>> value_observed("C[C@@H](CCc1ccc(O)cc1)O[C@@H]1O[C@H](CO[C@@H]2OC[C@](O)(CO)[C@H]2O)[C@H](O)[C@@H](O)[C@H]1O")
-4.5
>>> value_observed("COc1cc([C@H]2c3c(cc(OC)c(O)c3OC)C[C@@H](CO)[C@@H]2CO[C@H]2O[C@@H](CO)[C@@H](O)[C@H](O)[C@@H]2O)cc(OC)c1O")
26.9
>>> value_observed("Oc1ccc([C@H]2Oc3cc(OC4OCC(O)C(O)C4O)cc(O)c3C[C@@H]2O)cc1O (stereo partly specified)")
9.4
>>> value_observed("C[C@H](CCc1ccc(O)cc1)O[C@@H]1O[C@H](CO[C@@H]2OC[C@](O)(CO)[C@H]2O)[C@H](O)[C@@H](O)[C@H]1O")
-2.3
>>> value_observed("OC[C@H]1O[C@@H](O[C@@H](CCc2ccc(O)cc2)C[C@@H](O)CCc2ccc(O)cc2)[C@H](O)[C@H](O)[C@H]1O")
37.4
>>> value_observed("C[C@H](CCc1ccc(O)cc1)O[C@@H]1O[C@H](CO)[C@@H](O)[C@H](O)[C@H]1O")
-0.8
>>> value_observed("OC[C@@]1(O)CO[C@@H](OC[C@H]2O[C@@H](O[C@H](CCCCc3ccc(O)cc3)CCc3ccc(O)cc3)[C@H](O)[C@H](O)[C@H]2O)[C@@H]1O")
55.3
>>> value_observed("C[C@H](CCc1ccc(O)cc1)O[C@@H]1O[C@H](CO[C@@H]2O[C@H](CO)[C@@H](O)[C@@H]2O)[C@H](O)[C@@H](O)[C@H]1O")
6.8
>>> value_observed("COc1cc([C@@H]2c3c(cc(OC)c(O)c3OC)C[C@H](CO)[C@H]2CO[C@H]2O[C@@H](CO)[C@@H](O)[C@H](O)[C@@H]2O)cc(OC)c1O")
28.9
>>> value_observed("OC[C@H]1O[C@@H](O[C@@H](CCc2ccc(O)cc2)C[C@H](O)CCc2ccc(O)cc2)[C@H](O)[C@H](O)[C@H]1O")
74.7
>>> value_observed("C[C@@H](CCc1ccc(O)cc1)O[C@@H]1O[C@H](CO[C@@H]2O[C@@H](CO)[C@H](O)[C@H]2O)[C@@H](O)[C@H](O)[C@H]1O")
5.4
